- System: MDA-MB-231 breast
- protocol.details: NCI tumour cell line growth inhibition, 48 h; in the data active = GI50 below about 0.43 µM; inactive = the rest
Labels: class 1 (active), class 0 (inactive)

> print(dat)
                                   compound      cat
1  CO/C=C/C(=O)c1cc2cnc3c(=N)cc(NC(=O)C(C)C)c([nH]1)c23  class 1
2  Cc1ccc(NC(=O)c2ccc(CN3CCN(C)CC3)cc2)cc1Nc1nccc(-c2cccnc2)n1  class 0
3  Cn1cc(C2=C(c3ccccc3[N+](=O)[O-])C(=O)NC2=O)c2ccccc21  class 0
4  OC(c1cc(-c2cccc(Cl)c2)nc2ccccc12)C1CCCCN1 (centres undefined)  class 0
